tested on: HOP-92 NSCLC; assay: NCI-60 one-dose screen, 48 h (100 = growth as untreated, 0 = no growth, -100 = all killed); details: 10 µM unless noted
Compounds without any hit were thinned out: in the full panel of roughly 83,000, 20% have a hit.
Assignment: determine reported growth for the given compounds.
One number for each entry, in %.

O=c1ccc2nc(-c3ccccc3)nn(-c3ccccn3)c-2c1: 55.8
COC(=O)[C@H]1Cc2c([nH]c3ccccc23)[C@H](c2ccc3c(c2)OCO3)N1: 84.9

Can you give me growth for all of these, one by one?
1. CCOC(=O)CC1C(CNC(=O)NC)OC(n2cnc3c(NC(=O)Nc4ccccc4)ncnc32)C1O[Si](C)(C)C(C)(C)C (configuration not stated)
2. COc1cccc(-c2cc(-c3ccc(Nc4nc(Nc5ccc(Cl)cc5)nc(Nc5ccc(Cl)cc5)n4)cc3)nc(N)c2C#N)c1
3. COc1ccc(N2C(=O)/C(=C/C(Cl)=C/c3ccc([N+](=O)[O-])cc3)SC2=S)cc1
4. O=C(O)c1nn(-c2ccc(Cl)cc2)nc1N1CCCC1
5. O=c1c(/C=C/c2c(O)ccc3ccccc23)nnc2sc(-c3cccc([N+](=O)[O-])c3)nn12
6. Cc1c(C)c2c(c(C)c1OC(=O)CCC(=O)[O-])CCC(C)(CCCCCCCCCCC[P+](c1ccccc1)(c1ccccc1)c1ccccc1)O2 (configuration not stated)
7. CCOC(=O)CC1CSC(N/N=C(/C)c2cccc(C(F)(F)F)c2)=N1 (configuration not stated)

Output:
1: 63.1; 2: -85.7; 3: -33.8; 4: 77.1; 5: 65.7; 6: -82.7; 7: 100

Lab note: each compound below needs its growth filled in.
1. COc1cc(-c2ccc(-c3ccc(C(=N)N)s3)s2)cc(OC)c1OC
2. CCN1C(=O)N(CC)C2C1NN=c1s/c(=C\c3ccc([N+](=O)[O-])cc3)c(=O)n12 (configuration not stated)
3. COc1ccc(C(c2cc(OC)c(OC)c(OC)c2)n2cncn2)cc1O (configuration not stated)
4. O=C(CNc1ncco1)Nc1ccc(S(=O)(=O)c2ccc(NC(=O)CNc3ncco3)cc2)cc1

Output:
1: 33.6; 2: 79.2; 3: 43.9; 4: 81
